# Run Description: self-splicing fitness, log relative to wild type (ln ratio); higher = more splicing; Tetrahymena group I intron in knt gene, E. coli kanamycin selection, DiMSum; sequences stand for … in CUCUCU…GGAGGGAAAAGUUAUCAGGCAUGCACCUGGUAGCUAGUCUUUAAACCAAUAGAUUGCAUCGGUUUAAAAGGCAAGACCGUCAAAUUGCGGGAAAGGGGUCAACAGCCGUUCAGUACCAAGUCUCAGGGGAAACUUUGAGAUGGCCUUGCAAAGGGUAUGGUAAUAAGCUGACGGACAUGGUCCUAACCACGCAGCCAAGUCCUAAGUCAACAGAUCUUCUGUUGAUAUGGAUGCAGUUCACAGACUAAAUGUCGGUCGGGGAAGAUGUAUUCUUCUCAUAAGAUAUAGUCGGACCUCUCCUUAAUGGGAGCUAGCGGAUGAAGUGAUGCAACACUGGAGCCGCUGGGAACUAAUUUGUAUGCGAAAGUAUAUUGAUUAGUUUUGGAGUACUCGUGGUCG;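 further: selection with 25 µg/mL kanamycin versus none on LB agar overnight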
# Stated Conditions: 37 °C
Property Measured: self-splicing fitness (ln)

seq_text=ACCUAGCAAUAUUACGCUGG readout_value=-2.53
seq_text=GUGGAGCAAUAUUACGACAU readout_value=-1.48
seq_text=CAACAGCAAUAUUACGCGUC readout_value=-1.98
seq_text=UGAUAGCAAUAUUACGUAUG readout_value=-0.567
seq_text=CCCAAGCAAUAUUACGGUUG readout_value=-2.52
seq_text=CUAAAGCAAUAUUACGAGUG readout_value=0.456
seq_text=UGUAAGCAAUAUUACGAGUC readout_value=-2.47
seq_text=ACCCAGCAAUAUUACGAACC readout_value=-0.993
seq_text=CGGGAGCAAUAUUACGGUCU readout_value=-0.781
seq_text=UCCUAGCAAUAUUACGUCCA readout_value=-1.56
seq_text=AGGCAGCAAUAUUACGUGAC readout_value=-1.84
seq_text=CCAGAGCAAUAUUACGGAAU readout_value=-2.52
